Measured ∆H (kJ/mol) ITC by item
- targetOrSystem: Topoisomerase II α human (Homo sapiens, UniProt P11388)
- Construct: purchased Sigma Aldrich (St. Louis, MO, USA)
- Sequence (P11388 whole entry): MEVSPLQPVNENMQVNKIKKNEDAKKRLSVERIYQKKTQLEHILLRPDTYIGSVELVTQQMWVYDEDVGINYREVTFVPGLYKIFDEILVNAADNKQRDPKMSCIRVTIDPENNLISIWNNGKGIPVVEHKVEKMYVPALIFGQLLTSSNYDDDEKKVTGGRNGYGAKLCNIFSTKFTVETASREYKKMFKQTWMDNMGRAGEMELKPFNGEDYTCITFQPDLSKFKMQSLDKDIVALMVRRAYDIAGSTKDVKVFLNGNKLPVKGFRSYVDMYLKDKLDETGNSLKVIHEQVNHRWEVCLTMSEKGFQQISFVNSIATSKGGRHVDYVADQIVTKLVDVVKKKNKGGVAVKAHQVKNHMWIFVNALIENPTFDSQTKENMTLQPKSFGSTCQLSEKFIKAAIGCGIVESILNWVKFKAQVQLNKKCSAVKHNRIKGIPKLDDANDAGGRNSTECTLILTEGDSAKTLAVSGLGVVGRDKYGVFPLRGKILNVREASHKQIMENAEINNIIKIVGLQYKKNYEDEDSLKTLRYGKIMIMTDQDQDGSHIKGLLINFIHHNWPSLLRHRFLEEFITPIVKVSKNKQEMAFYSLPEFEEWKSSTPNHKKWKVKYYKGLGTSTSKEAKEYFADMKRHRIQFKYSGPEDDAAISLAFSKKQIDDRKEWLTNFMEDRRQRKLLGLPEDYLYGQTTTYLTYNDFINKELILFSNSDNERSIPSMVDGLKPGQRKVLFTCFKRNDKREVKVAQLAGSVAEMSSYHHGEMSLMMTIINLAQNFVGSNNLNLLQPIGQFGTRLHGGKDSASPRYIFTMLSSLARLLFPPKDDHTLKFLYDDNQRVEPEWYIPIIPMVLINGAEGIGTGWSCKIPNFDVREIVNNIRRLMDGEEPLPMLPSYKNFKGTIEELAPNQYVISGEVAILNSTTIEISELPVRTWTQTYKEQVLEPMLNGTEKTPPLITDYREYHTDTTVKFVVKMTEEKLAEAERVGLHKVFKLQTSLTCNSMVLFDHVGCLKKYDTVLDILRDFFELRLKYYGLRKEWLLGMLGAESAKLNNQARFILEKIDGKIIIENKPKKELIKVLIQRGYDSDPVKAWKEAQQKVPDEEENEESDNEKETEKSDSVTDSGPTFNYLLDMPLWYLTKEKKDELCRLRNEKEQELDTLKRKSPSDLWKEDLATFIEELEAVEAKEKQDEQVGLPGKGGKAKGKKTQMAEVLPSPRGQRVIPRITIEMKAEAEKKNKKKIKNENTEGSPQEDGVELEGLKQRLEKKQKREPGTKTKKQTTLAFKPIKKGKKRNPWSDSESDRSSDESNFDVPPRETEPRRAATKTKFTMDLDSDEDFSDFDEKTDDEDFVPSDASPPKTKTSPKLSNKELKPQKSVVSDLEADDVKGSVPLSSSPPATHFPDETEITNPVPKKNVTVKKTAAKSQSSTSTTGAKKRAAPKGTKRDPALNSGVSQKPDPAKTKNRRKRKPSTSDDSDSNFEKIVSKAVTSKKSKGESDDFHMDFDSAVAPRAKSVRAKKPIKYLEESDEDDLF
- procedureSummary: Isothermal titration calorimetry (ITC) of interactions with TOPIIα
- Format: binding
- runParameters: single compounds; 36.6 °C; mean ± SD, n = 6
Marks after values point to notes of the source that are not given here.

Study these solved cases before continuing.
# ∆H (kJ/mol) ITC of O=C(C=Cc1ccc(O)c(O)c1)OC1CC(O)(C(=O)O)CC(O)C1OC(=O)C=Cc1ccc(O)c(O)c1 (centres unmarked) = −1.78 ± 0.15 ^d kJ/mol

GET /value?item= O=C(O)CCc1ccc(O)c(O)c1 [Dihydrocaffeic acid] &field=∆H (kJ/mol) ITC returns −6.49 ± 0.29 ^e kJ/mol

Given item O=C(C=Cc1ccc(O)c(O)c1)OC1CC(O)(C(=O)O)CC(OC(=O)C=Cc2ccc(O)c(O)c2)C1O (centres unmarked) , the value recorded as its ∆H (kJ/mol) ITC is −8.00 ± 0.45 ^c,a kJ/mol

Item: O=C(O)/C=C/c1ccc(O)c(O)c1 | ∆H (kJ/mol) ITC: −9.04 ± 0.25 ^a kJ/mol

Next:
Note to self: ∆H (kJ/mol) ITC recorded for Cn1c(=O)c2c(ncn2C)n(C)c1=O [Caffeine, reference compound] was −6.28 ± 0.45 ^e kJ/mol
